log10 of IC50 values by entry
study_system: HLA-DRB3*0101 (human)
assay_remarks: competition binding
condition_info: modification not given
measured_quantity: log10 of IC50 (log10 of the value in µM)

1) VRFDSDAASQRMEPR [p8*]; 0.43
2) VGYVDDTQFVRFDSD [p6]; -0.61
3) EQRYTCHVQHEGLPKP [p48]; 1.31
4) ADMAAQTTKHKWEAA [p29]; -1.48
5) EDLRSWTAADMAAQT [p27]; 0.27
6) FQKWAAVVVPSGQEQR [p46*]; 0.24
